- Protocol: M. tuberculosis growth inhibition, HTS (AID 449762);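 further: bacterial growth assessed after seven days of incubation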
- Condition Notes: M. tuberculosis H37Rv growth inhibition, 7H9 media; at 25 µM; hits give high values
About 1,900 (0.58%) of roughly 330,000 compounds were called active. Not shown: some 4% with an inconclusive outcome. Only a sample is shown. Potency and affinity values are given separately.
Entries and their inhibition values follow.
Readout: inhibition (%)

[[record]]
smiles_text = "COC(=O)/C=C1/S/C(=N/NC(=O)c2ccccc2)NC1=O"
readout = "inhibition"
quantity_unit = "%"
recorded_number = -1.82

[[record]]
smiles_text = "COc1ccc(NC(=O)N2CCC3(CC2)OCCO3)cc1OC"
readout = "inhibition"
quantity_unit = "%"
recorded_number = 1.68

[[record]]
smiles_text = "CCOC(=O)c1nnn(-c2nonc2-c2ccccc2)c1C"
readout = "inhibition"
quantity_unit = "%"
recorded_number = 7.53

[[record]]
smiles_text = "Cc1cc(NC(=O)CSc2ccc(-c3ccccc3)nn2)no1"
readout = "inhibition"
quantity_unit = "%"
recorded_number = -8.31

[[record]]
smiles_text = "COC(=O)c1cc(C#N)c(=O)[nH]c1C"
readout = "inhibition"
quantity_unit = "%"
recorded_number = 4.68

[[record]]
smiles_text = "O=C(NCCCN1CCOCC1)Nc1ccc(Cc2ccc(NC(=O)NCCCN3CCOCC3)cc2)cc1"
readout = "inhibition"
quantity_unit = "%"
recorded_number = -4.04

[[record]]
smiles_text = "Clc1ccc(CN2C3=NCCN3c3ccccc32)cc1Cl"
readout = "inhibition"
quantity_unit = "%"
recorded_number = -11.7

[[record]]
smiles_text = "O=C(Cn1ncc(N2CCCC2)c(Cl)c1=O)c1ccc(Cl)cc1"
readout = "inhibition"
quantity_unit = "%"
recorded_number = -5.18

[[record]]
smiles_text = "O=C(COC(=O)c1ccc2c(c1)S(=O)(=O)N=C1CCCCCN12)NCCc1ccc(F)cc1"
readout = "inhibition"
quantity_unit = "%"
recorded_number = -6.19

[[record]]
smiles_text = "COc1cc(OC)cc(C(=O)NCc2ccc3c(c2)cc(C)n3C)c1"
readout = "inhibition"
quantity_unit = "%"
recorded_number = 55.2

[[record]]
smiles_text = "C=CCSc1n[nH]c(-c2ccc(OC)cc2)n1"
readout = "inhibition"
quantity_unit = "%"
recorded_number = -6.49

